Recorded values, source patent US6476076B1.

- Tested on: PBQ-induced writhing in ICR mice
- MEASUREMENT DESCRIPTION: animal or person
- Type: in vivo, mouse
- CONDITION CONTEXT: Mus musculus, ip, read-out: Writhing Test ED50
Flag rule - ED50 less than 0.4 mg/kg flags 1; the remaining entries get 0.

# COMPOUND, ASSIGNED CATEGORY
rows = [
    ("CC(=O)Oc1ccccc1C(=O)O [Aspirin, reference compound]", 0),
    ("COc1cc(CNC(=O)CCCC/C=C/C(C)C)ccc1O [Capsaicin, reference compound]", 1),
    ("COc1cc(CC(=O)NCCCc2ccc(C)c(C)c2)ccc1OCCN [DA-5018, reference compound]", 1),
    ("COc1cc(CNC(=S)NCC(COC(=O)C(C)C)Cc2ccccc2)ccc1O (centres unmarked)", 1),
    ("COc1cc(CNC(=S)NC[C@H](COC(=O)C(C)(C)C)Cc2ccccc2)ccc1O [(R)-7a-I]", 1),
    ("CN1CC[C@]23c4c5ccc(O)c4O[C@H]2[C@@H](O)C=C[C@H]3[C@H]1C5 [Morphine, reference compound]", 0),
]

**Query** # check: ED50 < 0.4 mg/kg for CCCCCCCC/C=C\CCCCCCCC(=O)NCc1ccc(O)c(OC)c1 [Olvanil, reference compound]
**Result** 1

----------
- System: PBQ-induced writhing in ICR mice
- MEASUREMENT DESCRIPTION: animal or person
- Format: in vivo, mouse
- CONDITION CONTEXT: mouse, in vivo
MEASUREMENT LABEL: Relative Potency (Writhing Test)
A bare number is all that is needed in reply.

Some compounds with known Relative Potency (Writhing Test) results, for comparison:
# COMPOUND, MEASUREMENT LABEL, QUANTITATIVE RESULT
measured = [
    ("COc1cc(CNC(=S)NC[C@H](COC(=O)C(C)(C)C)Cc2ccccc2)ccc1O [(R)-7a-I]", "Relative Potency (Writhing Test)", 38),
    ("COc1cc(CNC(=S)NCC(COC(=O)C(C)C)Cc2ccccc2)ccc1O (centres unmarked)", "Relative Potency (Writhing Test)", 20),
    ("CC(=O)Oc1ccccc1C(=O)O [Aspirin, reference compound]", "Relative Potency (Writhing Test)", 0.086),
]

**Query** Endpoint output: Relative Potency (Writhing Test) of CCCCCCCC/C=C\CCCCCCCC(=O)NCc1ccc(O)c(OC)c1 [Olvanil, reference compound] . Value?
**Result** 10

**Query** Would you mind telling me what Relative Potency (Writhing Test) value was observed for COc1cc(CC(=O)NCCCc2ccc(C)c(C)c2)ccc1OCCN [DA-5018, reference compound] ?
**Result** 100

**Query** Field request: Relative Potency (Writhing Test) | item: COc1ccc2c(c1)c(CC(=O)O)c(C)n2C(=O)c1ccc(Cl)cc1 [Indomethacin, reference compound]
**Result** 0.75

**Query** Tell me the measured Relative Potency (Writhing Test) of CN1CC[C@]23c4c5ccc(O)c4O[C@H]2[C@@H](O)C=C[C@H]3[C@H]1C5 [Morphine, reference compound] , please.
**Result** 0.3

----------
- Tested on: rat eye (eye-wiping response)
- CONDITION CONTEXT: in vivo
MEASUREMENT LABEL: MPP: moderate pain-producing potency (%)
Number only, in %; omit the unit.

**Query** Please report the recorded MPP: moderate pain-producing potency for COc1cc(CNC(=O)CCCC/C=C/C(C)C)ccc1O [Capsaicin, reference compound] .
**Result** 0.0003

**Query** # get_value(readout='MPP: moderate pain-producing potency', item= C=C(C)[C@]12C[C@@H](C)[C@@]34O[C@](Cc5ccccc5)(O[C@@H]1[C@@H]3C=C(COC(=O)Cc1ccc(O)c(OC)c1)C[C@]1(O)C(=O)C(C)=C[C@@H]41)O2 [RTX, Resiniferatoxin, reference compound] )
**Result** 0.0001

**Query** What value of MPP: moderate pain-producing potency has been reported for the following compound? COc1cc(CC(=O)NCCCc2ccc(C)c(C)c2)ccc1OCCN [DA-5018, reference compound]
**Result** 0.003
